- Test system: HepG2 cells
- experiment_description: DiI-LDL uptake (LDLR ligand uptake activity) in HepG2 cells
- Format: cell-based, human
- measurement_context: 40 uM, 20 hours (second symbol of the cell)
- Experimental: HepG2 cells (2×10^5 cells/well) in 24-well culture plates were treated with various compounds at indicated concentrations for 20 hours. The fluorescent 1.1′-dioctadecyl-3,3,3′,3′-tetramethylindocarbocyanin perchlorate (DiI-LDL) (Biomedical Technologies, Stoughton, Mass.) at a concentration of 2 μg/mL was added to cells at the end of treatment. […]
reported_property: Activity in LDL uptake at 40 uM (relative to control)

molecule	result
COc1cc2c(cc1C(=O)NCCO)C1Cc3ccc(OC)c(OS(=O)(=O)c4ccccc4)c3CN1CC2 (stereo not shown)	+++
COc1ccc2c(c1)CCN1Cc3c(ccc(OC)c3OS(=O)(=O)c3ccccc3)CC21 (stereo not shown)	+++
COc1ccc2c(c1OS(=O)(=O)c1ccccc1)CN1CCc3cc(C)ccc3C1C2 (stereo not shown)	+
COc1cc2c(cc1OCCO)CCN1Cc3c(ccc(OC)c3OS(=O)(=O)c3ccccc3)CC21 (stereo not shown)	+++
